target: human IL-17RA (human, UniProt Q96F46 33-866); assay: cell-based or functional assay
Listed here are binders together with their documented % Inhib. of IL-5 production, TSLP treated human PBMC + IL-2 + IL-25, Expt. 1.
Measured quantity: % Inhib. of IL-5 production, TSLP treated human PBMC + IL-2 + IL-25, Expt. 1 (%)

{"Binder": "2.98.1 (antibody, V domains shown) VH: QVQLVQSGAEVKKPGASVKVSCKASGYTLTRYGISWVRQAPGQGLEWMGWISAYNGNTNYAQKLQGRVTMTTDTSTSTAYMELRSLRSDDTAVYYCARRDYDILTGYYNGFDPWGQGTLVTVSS VL: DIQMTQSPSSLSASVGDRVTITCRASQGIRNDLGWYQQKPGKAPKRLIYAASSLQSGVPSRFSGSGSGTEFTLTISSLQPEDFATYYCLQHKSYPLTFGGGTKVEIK", "Result": 0}
{"Binder": "4.357.1 (antibody, V domains shown) VH: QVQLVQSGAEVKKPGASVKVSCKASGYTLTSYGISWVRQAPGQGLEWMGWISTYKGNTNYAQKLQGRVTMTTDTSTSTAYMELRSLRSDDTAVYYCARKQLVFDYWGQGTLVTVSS VL: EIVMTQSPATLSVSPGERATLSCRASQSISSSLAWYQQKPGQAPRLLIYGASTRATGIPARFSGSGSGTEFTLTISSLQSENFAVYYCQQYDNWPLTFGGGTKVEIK", "Result": 0}
{"Binder": "2.46.1 (antibody, V domains shown) VH: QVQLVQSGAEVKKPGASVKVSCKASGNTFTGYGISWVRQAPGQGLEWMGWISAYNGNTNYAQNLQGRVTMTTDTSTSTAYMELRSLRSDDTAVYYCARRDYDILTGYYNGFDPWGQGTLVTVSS VL: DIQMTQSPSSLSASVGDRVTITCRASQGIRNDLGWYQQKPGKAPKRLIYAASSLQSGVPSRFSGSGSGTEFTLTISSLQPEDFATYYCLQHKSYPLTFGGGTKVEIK", "Result": 0}
